Target: HLA-A*02:12
Assay: IEDB peptide-MHC binding, purified MHC/direct/fluorescence; filed as Kd, often an IC50 or EC50 that approximates it; bounds were set here for any values at or beyond the usual limits of such assays
Details: source organism: Toxoplasma gondii RH
MEASURE: Kd

Problem: Look up HLA-A*02:12 data: Kd of "THADAHTQL" , then report it.
Result: ≥ 20 µM

====

Molecular target: HLA-A*02:02
Assay: IEDB peptide-MHC binding, purified MHC/competitive/radioactivity; filed as Kd, often an IC50 or EC50 that approximates it; bounds were set here for any values at or beyond the usual limits of such assays
Conditions: source organism: SARS coronavirus Tor2
MEASURE: pKd
// field semantics: pKd = negative decimal log of concentration (mol/L)

Problem: Determine from records and report pKd for "ILASFSAST"
Result: 8.79

Problem: Determine from records and report pKd for "LLVTLAILTA"
Result: 8.36

Problem: Determine from records and report pKd for "ALVSGTATA"
Result: 8.33

Problem: Determine from records and report pKd for "AQMGTLLIA"
Result: 7.19
